# experiment: gradient 5% acetonitrile 3 min, to 50% in 2 min, to 85% in 15 min, held 3 min, 100 µL/min
# conditions: column: Zorbax Extend-C18 2.1 x 50 mm; eluents: water / acetonitrile, 0.1% formic acid
Hi, to clarify the labels: True covers RP-LC retention time from 800 s upward, False covers anything below 800 s.

INSERT INTO measurements (compound, label) VALUES
  ('O=C(OCc1nc2ccccc2s1)c1ccc2c(c1)OCCO2', 'True'),
  ('Cc1c(N2CCN(C(=O)C3CCCCC3)CC2)c(=O)n(C)c(=O)n1-c1ccccc1', 'True'),
  ('O=C(Nc1ccsc1-c1nnc(C2CC2)o1)c1ccoc1', 'True'),
  ('CCc1cccc(NC(=O)C2CCCN(c3ncnc4c3nc3n4CCCCC3)C2)c1 (stereo not given)', 'False');

Exam item: decide whether the reported RP-LC retention time for Cc1cccc(NC(=O)N2CCN(Cc3cn(C)c4ccccc34)CC2)c1 is at least 800 s. False

Exam item: decide whether the reported RP-LC retention time for O=C(Nc1ccccc1C(F)(F)F)N1CCN(c2nc3c(F)cc(F)cc3s2)CC1 is at least 800 s. True

Exam item: decide whether the reported RP-LC retention time for Cc1c(Cl)cccc1Nc1c(-c2ccc(N(C)C)cc2)nc2cnccn12 is at least 800 s. True

Exam item: decide whether the reported RP-LC retention time for CCOc1ccc(-n2c(N3CCCC3)nc3cc(C(=O)OC)ccc3c2=O)cc1 is at least 800 s. True

====

# experiment: gradient 5% acetonitrile 3 min, to 50% in 2 min, to 85% in 15 min, held 3 min, 100 µL/min
# conditions: column: Zorbax Extend-C18 2.1 x 50 mm; eluents: water / acetonitrile, 0.1% formic acid
Hi, to clarify the labels: rule met covers RP-LC retention time from 700 s upward, rule not met covers anything below 700 s.

The following compounds have reported results that may help.
INSERT INTO results (compound, label) VALUES
  ('COc1ccc(-n2cc(C(=O)OCc3cccnc3)c3ccccc3c2=O)cc1', 'rule met'),
  ('O=C(NCCCn1c(-c2ccncc2)nc2cccnc21)Nc1cccc(C(F)(F)F)c1', 'rule met');

Exam item: decide whether the reported RP-LC retention time for CC1CN(C(=O)N2CCC(C(=O)N3CCN(c4ccccn4)CC3)CC2)c2cc(Cl)ccc2O1 (stereo not given) is at least 700 s. rule not met

Exam item: decide whether the reported RP-LC retention time for CCCCc1nnc(NC(=O)C2CC(=O)N(CCc3c[nH]c4ccc(OC)cc34)C2)s1 (stereo not given) is at least 700 s. rule met

Exam item: decide whether the reported RP-LC retention time for COc1ccc(NC(=O)NC(C(=O)N2CCc3ccccc32)C(C)C)cc1OC (stereo not given) is at least 700 s. rule met

====

# experiment: gradient 5% acetonitrile 3 min, to 50% in 2 min, to 85% in 15 min, held 3 min, 100 µL/min
# conditions: column: Zorbax Extend-C18 2.1 x 50 mm; eluents: water / acetonitrile, 0.1% formic acid
parameter: RP-LC retention time (s)
Respond numerically; units are s and should not be typed.

Below, each entry is followed by its recorded RP-LC retention time result.
INSERT INTO measurements (molecule, parameter, reading) VALUES
  ('Cc1ccc(-c2ccc(N3CCCC(C(=O)NCC(C)C)C3)nn2)cc1C (stereo unspecified)', 'RP-LC retention time', 737),
  ('COc1ccc(CN2C=C(C(=O)OCc3nc(C4CC4)no3)C(C)=NS2(=O)=O)cc1', 'RP-LC retention time', 972),
  ('C=CCn1c(=O)c2ccccc2n(Cc2nc(-c3ccc(F)c(Cl)c3)no2)c1=O', 'RP-LC retention time', 1140),
  ('Cc1ccc(C(=O)NC(C)CCc2ccccc2)cc1NC(=O)C1=CSCCO1 (stereo unspecified)', 'RP-LC retention time', 955),
  ('O=C(NCc1ccc(F)cc1)N1CCc2nc[nH]c2C1', 'RP-LC retention time', 574);

For the next question, use this molecule.
Name the reported RP-LC retention time value associated with the molecule Cc1ccc(CN2CC(c3ncc(C)n3Cc3cccnc3)C2)s1 683

src = the METLIN SMRT retention time set (Domingo-Almenara et al. 2019)
